# System: ncRNAs (SEQ ID NO 28-89)
# TEST_PROTOCOL: ncRNA arrays of melanocytes, keratinocytes, normal skin, melanoma cell lines and patient samples
# Design: species or system human
# MEASUREMENT_PARAMETERS: melanoma patient 8 sample compared to normal skin
# Description: An ncRNA array platform that contains over 10,000 putative (>200 nt) ncRNAs including most of the known ncRNAs in mouse and human was conducted to evaluate ncRNAs within melanoma. Lack of coding potential was estimated by an algorithm that scores various characteristics of protein-coding genes, including open reading frame length, synonymous/non-synonymous base substitution rates and similarity to known proteins. […]
Each entry gets False if its ncRNA array expression, patient 8 stays under -1, and True if its ncRNA array expression, patient 8 is -1 or above.

Reference set, count: 4
SUBSTANCE	STUDY_SYSTEM	ASSIGNED_LABEL
SEQ ID NO 65 (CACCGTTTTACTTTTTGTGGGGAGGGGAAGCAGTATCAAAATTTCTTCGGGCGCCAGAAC; listed as DNA, chemistry not given here; listed as Homo sapiens)	ncRNAs (SEQ ID NO 28-89)	False
SEQ ID NO 71 (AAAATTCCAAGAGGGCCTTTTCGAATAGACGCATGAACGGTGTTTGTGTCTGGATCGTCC; listed as DNA, chemistry not given here; listed as Homo sapiens)	ncRNAs (SEQ ID NO 28-89)	True
SEQ ID NO 46 (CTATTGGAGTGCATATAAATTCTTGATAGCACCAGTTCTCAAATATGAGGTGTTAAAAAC; listed as DNA, chemistry not given here; listed as Homo sapiens)	ncRNAs (SEQ ID NO 28-89)	True
SEQ ID NO 51 (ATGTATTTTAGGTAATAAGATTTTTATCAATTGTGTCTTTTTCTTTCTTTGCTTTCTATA; listed as DNA, chemistry not given here; listed as Homo sapiens)	ncRNAs (SEQ ID NO 28-89)	True

Here's the next entry for you.
Enquiry: Check this substance for ncRNA array expression, patient 8 at or above -1: SEQ ID NO 50 (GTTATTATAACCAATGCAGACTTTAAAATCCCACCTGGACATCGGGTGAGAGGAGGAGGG; listed as DNA, chemistry not given here; listed as Homo sapiens)
Return: False

###

# System: ncRNAs (SEQ ID NO 28-89)
# TEST_PROTOCOL: ncRNA arrays of melanocytes, keratinocytes, normal skin, melanoma cell lines and patient samples
# Design: species or system human
# MEASUREMENT_PARAMETERS: melanoma patient 10 sample compared to normal skin
Each entry gets Criterion not met if its ncRNA array expression, patient 10 stays under 3, and Criterion met if its ncRNA array expression, patient 10 is 3 or above.

Reference set, count: 4
SUBSTANCE	ASSIGNED_LABEL
SEQ ID NO 76 (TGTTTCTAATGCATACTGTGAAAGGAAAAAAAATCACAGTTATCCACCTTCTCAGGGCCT; listed as DNA, chemistry not given here; listed as Homo sapiens)	Criterion not met
SEQ ID NO 85 (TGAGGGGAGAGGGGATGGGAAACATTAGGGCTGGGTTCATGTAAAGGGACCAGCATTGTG; listed as DNA, chemistry not given here; listed as Homo sapiens)	Criterion not met
SEQ ID NO 47 (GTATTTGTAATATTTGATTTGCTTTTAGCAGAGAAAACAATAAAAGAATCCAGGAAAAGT; listed as DNA, chemistry not given here; listed as Homo sapiens)	Criterion not met
SEQ ID NO 31 (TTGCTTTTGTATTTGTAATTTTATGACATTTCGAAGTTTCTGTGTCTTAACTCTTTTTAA; listed as DNA, chemistry not given here; listed as Homo sapiens)	Criterion met

Here's the next entry for you.
Enquiry: Check this substance for ncRNA array expression, patient 10 at or above 3: SEQ ID NO 35 (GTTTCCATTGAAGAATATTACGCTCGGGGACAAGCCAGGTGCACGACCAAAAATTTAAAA; DNA, backbone and methylation of C not given here; listed as Homo sapiens)
Return: Criterion met
